This document collects CC50 values reported for 293T-ACE2 cells.

molecule: COc1ccc2cc1Oc1ccc(cc1)CC1c3cc(c(OC)cc3CCN1C)Oc1c(O)c(OC)cc3c1C(C2)N(C)CC3 (stereo not drawn) [SC181, Isofangchinoline]
CC50: > 50 µM

molecule: COc1cc2c(cc1OC)[C@@H](Cc1ccc(O)c(Oc3cc4c(cc3OC)CCN(C)[C@@H]4Cc3ccc(O)cc3)c1)N(C)CC2 [SC186, Liensinine]
CC50: > 50 µM

molecule: COc1cc2c(cc1O)[C@@H](Cc1ccc(O)c(Oc3ccc(C[C@@H]4c5cc(OC)c(OC)cc5CCN4C)cc3)c1)N(C)CC2 [SC187, Daurisoline]
CC50: > 50 µM

molecule: Cc1nnc(C(=O)NC(C)(C)c2nc(C(=O)NCc3ccc(F)cc3)c([O-])c(=O)n2C)o1.[K+] [SC109, Raltegravir (potassium salt)]
CC50: > 50 µM

molecule: CC(N)C12CC3CC(CC(C3)C1)C2.Cl (stereo not drawn) [SC16, Rimantadine (hydrochloride)]
CC50: > 50 µM

# evaluate next
Req: API: value(readout= CC50, system= 293T-ACE2 cells, query= Cl.N=c1ccn2c(n1)O[C@H]1[C@H](O)[C@@H](CO)O[C@H]12 [SC33, Ancitabine (hydrochloride)] )
Resp: > 50 µM
